# procedure-summary: yeast display, Sf9 membrane polyspecificity reagent, FACS + sequencing; frameworks hold sequencing errors
value-kind: polyreactivity (PSR sort gate)

residue-sequence | value-kind | result
QVQLVESGGGLVKAGGSLRLSCAASGITFHDYPMGWYRQAPGKERELVAAISSGGSTNYADSVKGRFTISRDNEKNTVYLQLNSLKPEDTAVYYCAAKYTDIVARLSLYYYWGQGTQVTVSS | polyreactivity (PSR sort gate) | low polyreactivity
QVQLVESGGGLFKEGGSLRLSCAASASYFWFNAMGWYRQAPGKEREFGASISRSGGTTYYADSVKGRFTISRDNAKNTVYLQMKSVIPEDTAVYYCNARAFGTGVGTGYFGKDRYDYWGQGSQVTVSS | polyreactivity (PSR sort gate) | low polyreactivity
QVQLVESGGGLVQAGGSLRLSCAASGGTFSYYTMGWYRQAPGKERELVARISKNGGRTYYADSVKGRFTISRDNAKNTVYLQMNCLKPEDTAVYYCNAAGRTYDFSGGRTMEYWGQGTQVTVSS | polyreactivity (PSR sort gate) | high polyreactivity
QVQLVESGGGLVQAGGSLRLSCAASGSIFGGYAMGWYRQAPGKERELVAAISYRGASTYYADSVKGRFTISRDNAKNTVYLQMNSLKPEDTAVYYCAVAARTRARVLYGYDYWGQGSQVTVSS | polyreactivity (PSR sort gate) | low polyreactivity
QVQLQESGGVLVQEGGSLRLSCAASGNISPQADMGWYRQATGTERELVASIGTGGTTNYADSVKGRFTISRDNAKNTVYLQMNRLKPDDTAVYYCAAVRYEYNPYDYWGQGTQVTVSS | polyreactivity (PSR sort gate) | low polyreactivity

# get_value(readout='polyreactivity (PSR sort gate)', item= "QVQLGESGGGIVQAGGSLRLSCAASGIIFARYAMGWSRQAPGKERELVAAISRRGTSTYYADSVKGRFTISRDNAKNTVYLQMNSLKPEDTALYYCAARQLFYLPGPRVDAWGQGTQVTVSS" )
high polyreactivity

# get_value(readout='polyreactivity (PSR sort gate)', item= "QVHLVESGGGLVQAGGSLRLSCAASGRTFTGYAMGWYRQAPGKEREFVAAISSGGVRTYYADSVKGRFTISRDNAKNTVYLQMNSLKPEDTAVYYCNARQVYYRGTFRYSYDYWGQGTQVTVSS" )
high polyreactivity

---

# procedure-summary: yeast display, Sf9 membrane polyspecificity reagent, FACS + sequencing; frameworks hold sequencing errors
value-kind: polyreactivity (PSR sort gate)

As a guide, the following entries are already answered.
residue-sequence | polyreactivity (PSR sort gate)
QVQLVESGGGLVQAGGSLRFSCAASGSIFSLNTMGWYRQAHGKERELVAAITRGGSTYYADSVKGRFTISRDNAKNTVYLQMNSLKPEDTAVYYCAAVPGGNISAPYDYWGQGTQVTVSS | high polyreactivity
QVKLVESGGGLVQEGGSLRLSCAASGRIFGNYAMGWYRQAPGKERELVAAIDLSGDSTYYADSVKGRFTISRDNAKNTVYLQMNSLKPEDTAVYYCAATDWFSEYFWGQGTQVTVSS | low polyreactivity
QFQLVESGGGLVQAGRSLRLSCAASGSIFWSNAMGWYRQAPGKERELVAAITTSDGSKYYADSVKGRFRISRDNANNTVYLQMNILKPEDTAVYYCAADTYFVCYGYYYWGQGTQVTVSS | low polyreactivity
QVQLVESGGGLFQAGGTHRLSCAASGFISKYYAMGWYRQAPGKERELVSSISRDGSTSYADSVKGRFTISRDNAKNTVYLQMNSLKAEDSAVYYCAAPSYRTRYYYWGQGTQVTVSS | high polyreactivity

# get_value(readout='polyreactivity (PSR sort gate)', item= "QVQLVESGGGLVQAGGSLRLSCAASGSIFYGNAMGWYRQAPGKERELVAAISQSGSRTYYADSVKGRFTISRDNAKNTVYLQMNSLKPEDTAVYYCAARARIYNYWGQGTQVTVSS" )
high polyreactivity

# get_value(readout='polyreactivity (PSR sort gate)', item= "QVQLVESGGRLVQAGGSLRLSCAASGRIFALNAMGWYRQAPGKERELVAAITWGGGSTYYADSVKGRFTISRDNAKNTVYLQMNSLKPVDTAVYYCAARYVFWPYWISGDSWGQGTQVTVSS" )
low polyreactivity
